Target: T1, Rb^P S534R (human, UniProt P06400 380-788, S534R)
T1 construct: also called variant 23
T1 sequence (looked up): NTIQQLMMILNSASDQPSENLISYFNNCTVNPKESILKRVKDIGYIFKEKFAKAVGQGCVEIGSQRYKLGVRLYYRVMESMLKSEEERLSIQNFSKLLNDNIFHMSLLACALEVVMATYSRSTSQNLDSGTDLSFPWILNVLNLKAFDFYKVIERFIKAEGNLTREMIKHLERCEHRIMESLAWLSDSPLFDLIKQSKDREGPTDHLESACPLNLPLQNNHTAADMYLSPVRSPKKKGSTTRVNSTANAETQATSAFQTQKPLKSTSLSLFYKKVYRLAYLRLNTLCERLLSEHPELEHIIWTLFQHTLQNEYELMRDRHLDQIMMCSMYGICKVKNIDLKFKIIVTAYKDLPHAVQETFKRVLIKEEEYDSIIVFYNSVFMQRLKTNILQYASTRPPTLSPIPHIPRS
Assay: fluorescence polarisation; 25 °C; unlabeled Rb^P titrated against 1.5 nM TMR-E2F1^TD or 7.5 nM TMR-E7^LxCxE; 25 mM Tris pH 8.0, 200 mM NaCl, 1 mM DTT, 0.1% Tween-20; 2 min incubation; quadratic fit; apparent Kd for the variants, Kd for WT
Conditions: both partners purified
No end group written: not given here. TMR = tetramethyl rhodamine dye
observationType: Kd (µM)
Kindly answer with a numeric value in µM, unit omitted.

## Task I have this binder here, {TMR}-GEGIRDLFDCDFGDLTPLD (also called E2F^TD; source: synthetic peptide, bought: GenScript) [TMR-E2F1^TD, peptide of the E2F1 transactivation domain] , and I need its recorded Kd.
## Result 9.28

## Task Suppose we examine the binder DLYCYEQLN (also: TMR label, position not given here, source: synthetic peptide, bought: GenScript) [TMR-E7^LxCxE, LxCxE peptide of the E7 oncoprotein from HPV] ; what Kd value has been reported?
## Result 0.004
